Molecular target: RORγ ligand binding domain (LBD) (Homo sapiens)
Sequence (P51449 269-508 limits assumed): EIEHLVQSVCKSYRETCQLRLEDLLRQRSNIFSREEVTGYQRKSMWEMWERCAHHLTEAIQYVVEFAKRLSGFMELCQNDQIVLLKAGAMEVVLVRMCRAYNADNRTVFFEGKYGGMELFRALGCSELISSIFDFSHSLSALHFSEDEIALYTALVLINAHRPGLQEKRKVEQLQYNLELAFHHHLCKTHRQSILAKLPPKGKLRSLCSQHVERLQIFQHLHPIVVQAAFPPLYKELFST
Test: TR-FRET Activity Assay (ligand sensing assay, RORγ-LBD / coactivator peptide interaction)
Let's look at some compounds and their measured IC50.
# value in µM; strip the unit string

compound	quantity.name	number
CC(C)(C)c1cc(-c2nc(C(N)=O)nn2CC2CCCCC2)cc(C(C)(C)C)c1	IC50	2.51
Cn1c(C(=O)N[C@H]2C[C@H](C(=O)O)C2)cc(-c2cc(C(C)(C)C)nc(C3(C)CC3)n2)c1CC1CCCCC1	IC50	0.794
Cn1c(C(=O)N[C@H]2C[C@H](C(=O)O)C2)cc(-c2cc(C(C)(C)C)nc(C(C)(C)C)n2)c1CC1CCCCC1	IC50	0.794

[Q] I have this compound here, `C[C@@H](O)CNC(=O)c1nc(-c2cc(C(C)(C)C)c(O)c(C(C)(C)C)c2)n(CC2CCCCC2)n1` , and I need its recorded IC50.
[A] 2.51

[Q] I have this compound here, `Cc1cc(-c2nc(C(N)=O)nn2CC2CCCCC2)cc(C(C)(C)C)c1O` , and I need its recorded IC50.
[A] 7.94

[Q] I have this compound here, `CC(C)(C)NS(=O)(=O)c1ccc(-c2nc(C(=O)N[C@H]3C[C@H](C(=O)O)C3)nn2CC2CCCCC2)cc1C(C)(C)C` , and I need its recorded IC50.
[A] 6.31

[Q] I have this compound here, Cc1c(C(=O)NC2CCOCC2)cc(-c2ccc(S(=O)(=O)NC(C)(C)C)c(C(F)(F)F)c2)n1CC1CCOC1 (stereo not shown) , and I need its recorded IC50.
[A] 3.98
